I'd be grateful if you could share measured composite z-score for these entries.
Assay: small-molecule microarray binders of probe aShh, primary screen, biochemical, biotinylated probe, 635/667 nm fluorescence (AID 1114);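 also: probe is biotin-labelled aShh protein from a stem cell growth factor screen; measures binding of labelled protein to compounds printed on the slide; score merges feature fluorescence at 667 nm with signal-to-noise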
Conditions: higher = more signal
Numbers only.

C=CCOC(=O)[C@H]1[C@@H]2C(=O)O[C@@H](c3ccccc3)[C@@H](c3ccccc3)N2[C@@H](c2ccc(OCCOC(=O)[C@H]3C[C@H]4C(=O)N5CCC[C@H]5C(=O)N4[C@H]3c3ccc(O)cc3)cc2)[C@]12C(=O)Nc1ccc(I)cc12 : 2.8
COCCn1c(C(=O)N2CCCC2)cc2c1C[C@H]1CN(C(=O)c3ccccc3)[C@@](Cc3ccc(F)cc3)(C(=O)OC)[C@@H]21 : 0.636
C=CCOC(=O)[C@@H]1[C@H]2C(=O)O[C@H](c3ccccc3)[C@H](c3ccccc3)N2[C@H](c2ccc(OCCOC(=O)[C@@H]3C[C@@H]4C(=O)N5CCC[C@H]5C(=O)N4[C@@H]3c3ccc(O)cc3)cc2)[C@@]12C(=O)Nc1ccc(I)cc12 : -0.0793
COC(=O)[C@@]1(Cc2ccccc2)[C@H]2c3cc(C(=O)N4CCCC4)n(CC4CC4)c3C[C@H]2CN1C(=O)c1ccccc1 : 0.834

Ask: // composite z-score lookup, key: COc1ccc([Si](C)(C)[C@H]2[C@H](CC(=O)N3Cc4ccccc4C[C@H]3CO)O[C@@]3(C(=O)N(Cc4ccc(N5CCC5=O)cc4)c4ccccc43)[C@@H]2C)cc1
Result: -0.144

====

Assay: P. aeruginosa biofilm formation inhibitors, primary screen, strain PAO1, LB-PBS medium, absorbance 600 nm (AID 1176); also: test concentration not given here
Conditions: P. aeruginosa PAO1 growth/biofilm, A600, 12 h; higher = more signal
Output schema: class label derived from z-score. Mapping: low = under 0.01, medium = from 0.01 up to 0.8, high = 0.8 and over

CN(C)CCCNC(=O)[C@@]1(c2ccc([N+](=O)[O-])cc2)CC(=O)N(C2CCCCC2)[C@@H]1c1ccc(CO)cc1I : medium
CCOC(=O)C[C@H]1[C@H](OC(=O)c2cc3ccccc3oc2=O)[C@@H](NC(=O)C2CCCCC2)c2cc(OCCCO)ccc2N1C(=O)c1ccccc1 : low
COCCOC(=O)N1C(=O)[C@@]2(c3ccccc31)[C@H](c1ccc(O)cc1)N1[C@H](c3ccccc3)[C@H](c3ccccc3)OC(=O)[C@H]1[C@@H]2C(=O)NC[C@H](O)c1ccccc1 : medium

Ask: Which category does the recorded z-score put O=C1OCCC/C=C\[C@H]2OC34C=CCN(CCN5CCOCC5)C(=O)[C@H]3N(CCCO)C(=O)[C@@H]4C12 (stereo partly specified) in?
Result: low

Ask: Which category does the recorded z-score put COc1ccc(C(=O)Nc2ccc(CN3C(=O)[C@@]4(O[C@@H](CCn5cc([C@H](O)c6ccccc6)nn5)[C@H]([Si](C)(C)c5ccc(OC)cc5)[C@H]4C)c4ccccc43)cc2)cc1 in?
Result: high

Ask: Which category does the recorded z-score put COCCOC(=O)N1C(=O)[C@@]2(c3cc(C#CC4=CCCCC4)ccc31)[C@H](C(=O)Nc1nc3ccccc3s1)[C@H]1C(=O)O[C@H](c3ccccc3)[C@H](c3ccccc3)N1[C@@H]2c1ccccc1OCCO in?
Result: high

Ask: Which category does the recorded z-score put COCCOC(=O)N1C(=O)[C@@]2(c3cc(C#Cc4ccc(OC)cc4)ccc31)[C@H](C(N)=O)[C@H]1C(=O)O[C@H](c3ccccc3)[C@H](c3ccccc3)N1[C@@H]2c1ccccc1OCCO in?
Result: high

Ask: Which category does the recorded z-score put [N-]=[N+]=NCc1ccccc1[C@@H]1OC(c2ccc(OCCCO)cc2)=N[C@]1(CCS(=O)(=O)c1ccccc1)C(=O)NCCN1CCOCC1 in?
Result: medium

Ask: Which category does the recorded z-score put CCOC1=C2C(CN(S(=O)(=O)c3ccc(C)cc3)C2c2ccc(C)cc2)C2C(=O)N(c3ccccc3)C(=O)C2C1 (stereo unspecified) in?
Result: low

====

I'd be grateful if you could share measured z-score for these entries.
Experiment: A549 lung cancer cell viability effects, profiling panel, resazurin fluorescence, 24 h, PK04 Diversity Set (AID 1171); also: test concentration not given here
Details: higher = more signal, called active from +8 up or from −8 down
One number for each entry.

Worked set:
COCCCN1C(=O)[C@@]2(Cc3ccccc31)c1ccccc1C(=O)N(Cc1ccccc1C(F)(F)F)[C@H]2c1ccc(CO)cc1 : -0.356
COCCOC(=O)N1C(=O)[C@@]2(c3cc(C#Cc4ccc(OC)cc4)ccc31)[C@H](C(N)=O)[C@H]1C(=O)O[C@H](c3ccccc3)[C@H](c3ccccc3)N1[C@@H]2c1ccccc1OCCO : -1.85
COC(=O)[C@@]1(Cc2ccc(OC)cc2)[C@H]2c3cc(C(=O)N(C)C)n(Cc4cccc5ccccc45)c3C[C@H]2CN1C(=O)c1ccccc1 : -1.92
CC(C)N1C(=O)c2ccccc2[C@](C)(C(=O)NCc2ccccc2)[C@@H]1c1ccc(CO)cc1 : -0.0838
CCCN1C(=O)[C@]2(CCS(=O)(=O)c3ccccc3)N=C(c3ccc(OCCCO)cc3)O[C@@H]2c2ccccc21 : -1.57

Report z-score for each item below.
1. O=C(c1ccccc1)N1Cc2ccccc2[C@@H]2OC(c3ccc(OCCCO)cc3)=N[C@]2(Cc2ccccc2)C1=O
2. O=C1OCCC/C=C\[C@H]2OC34C=CCN(CCN5CCOCC5)C(=O)[C@H]3N(CCCO)C(=O)[C@@H]4C12 (stereo partly specified)
3. COc1cc(OC)c(C(O)C2C=CC3C(=O)NC(=O)C3N2Nc2ccc(Cl)cc2Cl)cc1Br (stereo unspecified)

Result:
[-1.57, 0.116, -2.56]

Report z-score for each item below.
1. CC(C)C[C@@H]1NC(=O)[C@H]2C[C@@H](C(=O)NCCCCCCN(C)C)[C@@H](c3ccc(O)cc3)N2C1=O
2. CN(C)C(=O)[C@@]1(Cc2ccccc2CN=[N+]=[N-])N=C(c2ccc(OCCCO)cc2)O[C@H]1c1ccccc1
3. CCN(CC)c1ccc(N2CC=CC34O[C@@H]5/C=C\CCCOC(=O)C5[C@H]3C(=O)N(CCO)[C@@H]4C2=O)cc1 (stereo partly specified)
4. [N-]=[N+]=NCc1ccccc1[C@@H]1OC(c2ccc(OCCCO)cc2)=N[C@]1(CCS(=O)(=O)c1ccccc1)C(=O)NCCN1CCOCC1
5. O=C1O[C@H](c2ccccc2)[C@H](c2ccccc2)N2[C@H]1[C@@H](C(=O)NC[C@H](O)c1ccccc1)[C@]1(C(=O)Nc3ccccc31)[C@H]2c1ccc(OCCO)cc1

Result:
-0.743
-0.325
-1.8
-0.597
-0.333

Report z-score for each item below.
1. COc1ccc(CCNC(=O)[C@@]2(C)c3ccccc3C(=O)N(Cc3cc(F)cc(C(F)(F)F)c3)[C@H]2c2ccc(CO)cc2)cc1
2. Cc1ccc(S[C@]2(C(=O)NCCN3CCOCC3)CC(=O)N(Cc3ccccc3Cl)[C@@H]2c2ccc(CO)cc2)cc1
3. COc1cc2c(cc1OC)CN(C(=O)[C@H]1[C@@H]3C(=O)O[C@@H](c4ccccc4)[C@@H](c4ccccc4)N3[C@@H](c3ccc(O)cc3)[C@]13C(=O)Nc1ccc(C#CCNC(N)=O)cc13)CC2

Result:
0.396
1.05
-0.0437

Report z-score for each item below.
1. COC(=O)c1c(CC[C@@H](CO)NC(=O)N2CCC[C@H]2Cn2cc(-c3ccccn3)nn2)oc(C(C)=O)c1C(=O)OC
2. [N-]=[N+]=Nc1ccccc1C[C@@]1(C(=O)NCCN2CCOCC2)N=C(c2ccc(OCCCO)cc2)O[C@@H]1c1ccccc1
3. C=CCC(OC(C)=O)[C@@H]1[C@@H](N(Cc2cccc3ccccc23)C(=O)c2ccc(-c3ccccc3)cc2)c2cc(OCCCO)ccc2N1C(=O)Cc1ccc(OC)cc1 (stereo partly specified)
4. CCOC(=O)C[C@H]1[C@H](OC(=O)c2cc3ccccc3oc2=O)[C@@H](NC(=O)C2CCCCC2)c2cc(OCCCO)ccc2N1C(=O)c1ccccc1
5. O=C1C2C=CC(C(O)C3CCCCC3)N(Nc3ccc([N+](=O)[O-])cc3)C2C(=O)N1c1ccccc1 (stereo unspecified)

Result:
1: 0.133; 2: -0.524; 3: 1.54; 4: -0.713; 5: -1.06

Report z-score for each item below.
1. C=CCOC(=O)[C@H]1[C@@H]2C(=O)O[C@@H](c3ccccc3)[C@@H](c3ccccc3)N2[C@@H](c2ccc(OCCOC(=O)[C@H]3C[C@H]4C(=O)N[C@@H](CC(C)C)C(=O)N4[C@H]3c3ccc(O)cc3)cc2)[C@]12C(=O)Nc1ccc(I)cc12
2. COC(=O)[C@@]1(Cc2ccccc2)[C@H]2c3cc(C(=O)N4CCCC4)n(Cc4nc5ccccc5[nH]4)c3C[C@H]2CN1C(=O)c1ccccc1
3. CCOC(=O)[C@H]1C/C=C/C[C@H](C(=O)OCC)C(=O)O[C@H]2[C@@H](OC)O[C@H](CO)[C@@H](OC(=O)Nc3ccc(C#N)cc3)[C@@H]2OC1=O

Result:
0.0559
-0.178
-4.98

Report z-score for each item below.
1. CC(C)OC(=O)C=C1C[C@@H](c2ccccc2C(F)(F)F)O[C@@H](c2ccccc2C(F)(F)F)O1
2. COc1cc2c(cc1OC)CN(C(=O)[C@@H]1[C@H]3C(=O)O[C@H](c4ccccc4)[C@H](c4ccccc4)N3[C@H](c3ccc(O)cc3)[C@@]13C(=O)Nc1ccc(C#CC4(O)CCCCCC4)cc13)CC2

Result:
1.08
1.05

Value source: PubChem BioAssay
